# TARGET_UNDER_TEST: SHP2-C SH2;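 note: peptide library displayed on the E. coli surface as eCPX fusions, selected cells deep-sequenced, score is each peptide's frequency after selection divided by its frequency in the input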
# TEST_PROTOCOL: SH2 binding enrichment of the phosphorylated peptide, bacterial display (enrichment ratio); higher = better substrate or ligand; peptides without Tyr show the background
MEASURED_ATTRIBUTE: SH2 binding enrichment
Give the value as a plain number.

// worked examples, SH2 binding enrichment included
>>> experimental_result("VYSTDCYRVGG [NTRK2_Y706_Y706C]")
0.538
>>> experimental_result("STSKTYVISRT [RBBP6_Y87]")
0.758
>>> experimental_result("EREFKYGAHKF [OAT_Y50_N54K_YF]")
0.585
>>> experimental_result("DIDKIYVRTGI [PIK3CA_Y355]")
0.757
>>> experimental_result("VKPHRYRPGTV [H3-5_Y41]")
0.671
>>> experimental_result("LYNQDYPIHCV [GATM_Y227_S231C]")
0.689
>>> experimental_result("VLTSKYRGGGG [HBA1_Y141]")
0.841
>>> experimental_result("VTAALYGRLYE [BTD_Y536]")
0.838

Lab note: next sequence to report on.
Query: May I ask what SH2 binding enrichment has been recorded for LSRDVYEEDSY [RET_Y900] ?
Reply: 0.726
